details: buffer; pH 7.4; 6.0 h; 150.0 µM
RECORDED_METRIC: solubility kinetic

| COMPOUND | solubility kinetic |
| --- | --- |
| O=C(c1ccccc1)N1CCC(c2nn(-c3ccc(F)cc3)c(=O)[nH]2)CC1 | > 54 µg/mL |
| Cc1cn2nc(-c3nc(C4CCCN(C(=O)c5ccccc5)C4)no3)cc2c(=O)[nH]1 (stereo not given) | 27.5 µg/mL |
| O=C(NC1CCN(c2cc(-c3ccc(Cl)cc3)[nH]n2)C1)c1ccccc1 (stereo not given) | < 1 µg/mL |
| COc1ccc(-n2nc(C3CCCN([S+](=O)([O-])c4cccc(C(F)(F)F)c4)C3)[nH]c2=O)cc1 (stereo not given) | < 1 µg/mL |
| COc1ccc(-n2nc(C3CCCN(C(=O)Cc4ccc(F)cc4)C3)[nH]c2=O)cc1 (stereo not given) | > 61 µg/mL |
| O=C(Nc1nc(-c2ccc(F)cc2)cs1)c1ccncc1NS(=O)(=O)c1ccccc1Cl | < 1 µg/mL |

For each of the compounds below, note its solubility kinetic.
1. Nc1cccc(CNc2ccc(S(=O)(=O)Nc3nccs3)cc2)c1O
2. O=C(Nc1ccc(F)c(C(F)(F)F)c1)Nc1nnc(-c2ccncc2)s1
3. CCOC(=O)C1(Cc2ccccc2C(F)(F)F)CCN(C2CCN(C(C)C)CC2)CC1
4. Cc1ccc(S(=O)(=O)NCC(=O)Nc2nc(-c3ccccc3)cs2)cc1
5. CCOc1ccc(CCNC(=O)c2cc3ccccc3n2Cc2ccccn2)cc1OCC

// result
["47.2 µg/mL", "< 1 µg/mL", "55 µg/mL", "< 1 µg/mL", "< 1 µg/mL"]
